- Assayed system: mixture of 5 nM human C3, 5 nM human C3a and 2.5 nM human C3b coated on the plate
- Method: counterscreening ELISA, plate coated with a mixture of human C3, C3a and C3b, Fab supernatant
# maps each entry to its OD (370 nm)
The reply should be a number in OD, with the unit left off.

Binder	Observed measurement
C3bBb.P045.072 (Fab, V domains shown, Tested as soluble Fab in E. coli supernatant with a T7 tag at the C-terminus of the Fab CH1 domain; detected with anti human kappa) VH: KLQLVESGGGLVKPGGSLRLSCAASGRRFGVQDMSWVRQAPGKGLEWVGSISPKGDHKYLNTKFIGRFTISRDNSKNTLYLQMNSLRAEDTAVYYCARDWGYFDQWGQGTLVTVSS VL: AIQMTQSPSSLSASVGDRVTITCHGSYWLSSEVAWYQQKPGKAPKLLIYDGNGIIGNVPSRFSGSGSHEDYTLTISSLQPEDFATYYCQQYRYHPYTFGHGTKVEIK	-0.005
C3bBb.P048.061 (Fab, V domains shown, Tested as soluble Fab in E. coli supernatant with a T7 tag at the C-terminus of the Fab CH1 domain; detected with anti human kappa) VH: GQLVESGGGLVKPGGSLRLSCKASGFYWGPGAMSWVRQAPGKGLEWVGSISPKGGSTDINPKIGGRFTISRDNNQDTLYLQMNSLRAEDTAVYYCARDIGFFDTWGQGTLVTVSS VL: AIQMTQSPSSLSASVGDRVTITCQGSWLISNYLAWYQQKPGKAPKLLIFDAKYRAPEVPSRFSGSGSGTDFTLTISSLQPEDFATYYCQQYGGRLLTFGQGTKVEIK	0.001
C3bBb.P048.241 (Fab, V domains shown, Tested as soluble Fab in E. coli supernatant with a T7 tag at the C-terminus of the Fab CH1 domain; detected with anti human kappa) VH: GQLVESGGGLVKPGGSLRLSCKASGFYWGPGAMSWVRQAPGKGLEWVGSISPKGGSAWYNNNFTGRFTISRDNNQDTLYLQMNSLRAEDTAVYYCARDIGFFDTWGQGTLVTVSS VL: INQMTQSPSSLSASVGDRVTITCQAKWVISNYLAWYQQKPGKAPKLLIFDAKYRAPEVPSRFSGSGSDGTFTLTISSLQPEDFATYYCQQYDWWPYTFGQGTKVEIK	0.17
C3bBb.P048.127 (Fab, V domains shown, Tested as soluble Fab in E. coli supernatant with a T7 tag at the C-terminus of the Fab CH1 domain; detected with anti human kappa) VH: GQLVESGGGLVKPGGSLRLSCKASGFYWGPGAMSWVRQAPGKGLEWVGSISPKGGSTEYNTKVYGRFTISRDNNQDTLYLQMNSLRAEDTAVYYCARDIGFFDTWGQGTLVTVSS VL: HQMTQSPSSLSASVGDRVTITCDGEWDISNYLAWYQQKPGKAPKLLIFDAKYRAPEVPSRFSGSGSGRDFTLTISSLQPEDFATYYCQQYNRMYFTFGQGTKVEIK	-0.006

Next item in the queue.
The reported OD (370 nm) of the binder C3bBb.P055.015 (Fab, V domains shown, Tested as soluble Fab in E. coli supernatant with a T7 tag at the C-terminus of the Fab CH1 domain; detected with anti human kappa) VH: GQLVESGGGLVKPGGSLRLSCKASGFYWGPGAMSWVRQAPGKGLEWVGSISPKGGSAEYASKVYGRFTISRDNNQDTLYLQMNSLRAEDTAVYYCARDIGFFDTWGQGTLVTVSS VL: DYQMTQSPSSLSASVGDRVTITCEAHSQISNYLAWYQQKPGKAPKLLIFDAKYRAPEVPSRFSGSGSGPDFTLTISSLQPEDFATYYCQQYNDFWLTFGQGTKVEIK was -0.014
